Test system: MS2 coat protein
TEST_DESCRIPTION: apparent KD of MS2 coat protein; designed switch direction (-1 OFF switch, 1 ON switch): 1; higher = weaker reporter binding
CONDITION_SET: input ligand: microRNA oligo, concentration not stated
Provide the recorded apparent KD of MS2 coat protein for the entries that follow.
Give bare numbers, in nM.

SEQUENCE_CONTENT	UNITS_LABEL	apparent KD of MS2 coat protein
UUGAACAAUUAAGGAUAUCGAGUACAUAUGUUAAACAUGAGGAUCACCCAUGUGGGUUGCGGUAUCGAGAAGGUAAAUUAGAAG [Mat - Same State NG 2 - JL mod - D57] (Eterna round: R96, puzzle: Same State NG 2)	nM	25.3
UUGAAGAAUUAAGGAUAUCGAGUACAUAUGUUAAACAUGAGGAUCACCCAUGUGGGUUGCGGUAUCGAGAAGGUAAAAUACAAG [Mat - Same State NG 2 - JL mod - D58] (Eterna round: R96, puzzle: Same State NG 2)	nM	26.6
AAACGGUCGCUGCGGCAACCACAUGAGGAUCACCCAUGUACAUAGGAUAUCGCCUAAAAUACUGGCGAGAAGGGUGAUUAAAGA [Onbiriza] (Eterna round: R96, puzzle: Same State NG 3)	nM	17.9
GCGAACUGUGUAGGAUAUUGAGCACUUUUGGAGCAAGAAGGACACCAAGUGCUGACUAUACAUGAGGAUCACCCAUGUUCAGCA [Eternabot solution 22] (Eterna round: R96, puzzle: Same State NG 1)	nM	21.4

For each of the items listed, what is its apparent KD of MS2 coat protein?
1. GCGAGCGUACUUGCAGACAUGAGGAUCACCCAUGUAACUGGACAGGAUAUGGUACCGUUUCGGUACCAGAAGGGUUUACUCAUG [JL SSNG3 3.57] (Eterna round: R96, puzzle: Same State NG 3)
2. UUAAUAAUGAUAGGAUAUACAUGAGGAAUCCUCGUAGAAGGAUCAUGACAUGAGGAUCACCCAUGUAACGCUCAGAAGAGCGUA [Mat - Same State NG 1 - JL mod - D43] (Eterna round: R96, puzzle: Same State NG 1)
3. UUUGCAUGACGAGGAUAUCAUUUAUUUCUUGAUUGAGAAGGCGUUUUUUUUAUUACCUAACAUGAGGAUCACCCAUGUGACAGU [JR_SSNG1_Sub045] (Eterna round: R96, puzzle: Same State NG 1)
4. GCGAGCGUACUUGCUACAUGAGGAUCACCCAUGUUUGAUGGACAGGAUAUGGUACCGUUUCGGUACCAGAAGGGUUCACAUGUA [JL SSNG3 3.79] (Eterna round: R96, puzzle: Same State NG 3)
5. CAUCGUUUGAUAGGAUAUCGCUAUACAUGAGGAUCACCCAUGUUUACCACGCUGGUUUUUCAUACCGAGAAGGAUUCUGAUGAC [salish99_SSNG02_r04_014] (Eterna round: R96, puzzle: Same State NG 2)

Result block:
[84, 30.9, 19.6, 268, 27.7]
